Value source: ChEMBL document CHEMBL1909294

Endpoint: HepSE_hepatitis. System: Hepatotoxicity. Items follow.
Number, no unit, nothing else.

COMPOUND	VALUE REPORTED
Nc1cc(N2CCCCC2)nc(N)[n+]1[O-] [MINOXIDIL]	0
COCCOC(=O)C1=C(C)NC(C)=C(C(=O)OC(C)C)C1c1cccc([N+](=O)[O-])c1 (stereo not drawn) [NIMODIPINE]	1
CCn1cc(C(=O)O)c(=O)c2ccc(C)nc21 [NALIDIXIC ACID]	0
FC(F)OC(F)(F)C(F)Cl (stereo not drawn)	0
Oc1ccc(C2CNCCc3c2cc(O)c(O)c3Cl)cc1 (stereo not drawn) [FENOLDOPAM]	0
O=C1c2c(O)ccc(O)c2C(=O)c2c(NCCNCCO)ccc(NCCNCCO)c21 [MITOXANTRONE]	1
CN(C)CCCN1c2ccccc2CCc2ccc(Cl)cc21 [CLOMIPRAMINE]	1
C#C[C@]1(O)CC[C@H]2[C@@H]3CCC4=Cc5oncc5C[C@]4(C)[C@H]3CC[C@@]21C [DANAZOL]	0

# input For C[C@]12CC[C@@H]3c4ccc(O)cc4C[C@@H](CCCCCCCCC[S+]([O-])CCCC(F)(F)C(F)(F)F)[C@H]3[C@@H]1CC[C@@H]2O (stereo partly drawn) [FULVESTRANT] , what is its reported HepSE_hepatitis?
# output 0

# input For CC(C)NCC(O)COc1cccc2ccccc12 (stereo not drawn) [PROPRANOLOL] , what is its reported HepSE_hepatitis?
# output 0

# input For CO/N=C(\C(=O)N[C@@H]1C(=O)N2C(C(=O)O)=C(CSc3nc(=O)c(=O)[nH]n3C)CS[C@H]12)c1csc(N)n1 [CEFTRIAXONE] , what is its reported HepSE_hepatitis?
# output 0

# input For COc1cc2c(cc1OC)[C@@H](Cc1cc(OC)c(OC)c(OC)c1)[N+](C)(CCCOC(=O)CC/C=C/CCC(=O)OCCC[N+]1(C)CCc3cc(OC)c(OC)cc3[C@H]1Cc1cc(OC)c(OC)c(OC)c1)CC2 (stereo partly drawn) , what is its reported HepSE_hepatitis?
# output 0

# input For CCCCC[C@H](O)CC[C@@H]1[C@H]2Cc3cccc(OCC(=O)O)c3C[C@H]2C[C@H]1O [TREPROSTINIL] , what is its reported HepSE_hepatitis?
# output 0

----------
Tested on: Hepatotoxicity
*1 amine or outer side, *2 acyl side, *3 side chain or, on linkers, in order; H or OH if unused. Where a SMILES comes first, the peptide text is derived from it. Bridges are numbered along the chain shown (N, C = ends). Roman numbers before positions name the chains, in order. [ ]: non-standard residue; d: D form. Actinocin(9to1) = Cc1c2oc3c(C)ccc(C(=O)[*:1])c3nc-2c(C(=O)[*:2])c(N)c1=O; NMeV = CN[C@H](C(=O)O)C(C)C; Sar = CNCC(=O)O
RECORDED METRIC: HepSE_hepatic failure
Number, no unit, nothing else.

COMPOUND	RECORDED METRIC	VALUE REPORTED
CCOC(=O)[C@H](CCc1ccccc1)N[C@@H](C)C(=O)N1Cc2ccccc2C[C@H]1C(=O)O	HepSE_hepatic failure	1
CN(Cc1cnc2nc(N)nc(N)c2n1)c1ccc(C(=O)N[C@@H](CCC(=O)O)C(=O)O)cc1 [METHOTREXATE]	HepSE_hepatic failure	1
C[C@]12C=CC(=O)N[C@@H]1CC[C@@H]1[C@@H]2CC[C@]2(C)[C@@H](C(=O)Nc3cc(C(F)(F)F)ccc3C(F)(F)F)CC[C@@H]12 [DUTASTERIDE]	HepSE_hepatic failure	0
CN[C@H](CC(C)C)C(=O)N[C@H]1C(=O)N[C@@H](CC(N)=O)C(=O)N[C@H]2C(=O)N[C@H]3C(=O)N[C@H](C(=O)N[C@H](C(=O)O)c4cc(O)cc(O)c4-c4cc3ccc4O)[C@H](O)c3ccc(c(Cl)c3)Oc3cc2cc(c3O[C@@H]2O[C@H](CO)[C@@H](O)[C@H](O)[C@H]2O[C@H]2C[C@](C)(N)[C@H](O)[C@H](C)O2)Oc2ccc(cc2Cl)[C@H]1O	HepSE_hepatic failure	0
Cc1c2oc3c(C)ccc(C(=O)N[C@@H]4C(=O)N[C@H](C(C)C)C(=O)N5CCC[C@H]5C(=O)N(C)CC(=O)N(C)[C@@H](C(C)C)C(=O)O[C@@H]4C)c3nc-2c(C(=O)N[C@@H]2C(=O)N[C@H](C(C)C)C(=O)N3CCC[C@H]3C(=O)N(C)CC(=O)N(C)[C@@H](C(C)C)C(=O)O[C@@H]2C)c(N)c1=O [DACTINOMYCIN] (I: T[dV]P[Sar][NMeV] / II: T[dV]P[Sar][NMeV]; ester I:1-I:C, II:1-II:C; linker I:N-II:N via Actinocin(9to1))	HepSE_hepatic failure	1

# input So what HepSE_hepatic failure did FC(F)OC(Cl)C(F)(F)F (configuration not stated) get with Hepatotoxicity?
# output 1

# input So what HepSE_hepatic failure did `CC(O)(P(=O)(O)O)P(=O)(O)O` get with Hepatotoxicity?
# output 0
